- System: Alopecurus myosuroides (ALOMY)
- EXPERIMENTAL_DETAILS: Glasshouse assay for herbicidal activity (pre- and post-emergence), percentage phytotoxicity
- Format: in vivo
- ASSAY_CONDITIONS: Alopecurus myosuroides, pre-emergence, 480 h, Rate 250 g/ha; pre-emergence; visual assessment 20 DAA; 100%=total damage, 0%=no damage; read-out: Pre-emergence herbicidal activity (percentage phytotoxicity) ALOMY PRE
ENDPOINT_LABEL: pest or weed control at 250 g/ha (%)
Write down the numeric answer in % and omit the unit.

{"COMPOUND": "CCN(C)C(=O)CC1CC(=O)C(c2c(C)cc(-c3ccc(F)cn3)cc2C)C1=O (stereo not shown)", "pest or weed control at 250 g/ha (%)": 100}
{"COMPOUND": "Cc1cc(C)c(C2=C(OC(=O)C(C)(C)C)CC(CC(N)=O)C2=O)c(C)c1 (stereo not shown)", "pest or weed control at 250 g/ha (%)": 70}
{"COMPOUND": "C#CC(C)(C)NC(=O)CC1CC(=O)C(c2c(C)cc(-c3ccc(Cl)cn3)cc2C)C1=O (stereo not shown)", "pest or weed control at 250 g/ha (%)": 100}

Fill in: pest or weed control at 250 g/ha of C=Cc1cc(-c2ccc(Cl)cn2)cc(C)c1C1C(=O)CC(CC(=O)NC(C)(C)C)C1=O (stereo not shown) is ___
30
